// polymerase ribozyme fitness (log ratio) lookup, one value per entry
B1: TPR 5TU (parent)
chain: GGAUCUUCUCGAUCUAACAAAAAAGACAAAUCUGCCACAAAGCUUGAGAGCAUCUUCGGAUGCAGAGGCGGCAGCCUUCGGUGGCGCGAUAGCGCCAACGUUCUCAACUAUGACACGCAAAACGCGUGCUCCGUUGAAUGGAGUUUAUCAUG

- Variants of: B1
- Test Description: polymerase ribozyme fitness, log enrichment relative to wild type (log ratio); higher = more active; in vitro selection for triplet polymerase activity
This sample holds only a part of the variants without activity.

Solved entries (count: 7):
mutation_annotation="G58C A150U" recorded_value=1.46
mutation_annotation="A115C G124U U144G" recorded_value=-3.11
mutation_annotation="C5G U15A U45G U82C G92A A150U" recorded_value="≤ -4.2"
mutation_annotation="A60U C85A" recorded_value=-3.04
mutation_annotation="U6G C51A G83C" recorded_value=-2.97
mutation_annotation="A39G A41G A73G G86C G92U" recorded_value="≤ -4.2"
mutation_annotation="C93U A98G C103A" recorded_value=-2.73

In plain terms, A47U A49G A98G U101A has a documented polymerase ribozyme fitness (log ratio) of ≤ -4.2
